Assayed system: UniProtKB O75762
Sequence (O75762 whole entry): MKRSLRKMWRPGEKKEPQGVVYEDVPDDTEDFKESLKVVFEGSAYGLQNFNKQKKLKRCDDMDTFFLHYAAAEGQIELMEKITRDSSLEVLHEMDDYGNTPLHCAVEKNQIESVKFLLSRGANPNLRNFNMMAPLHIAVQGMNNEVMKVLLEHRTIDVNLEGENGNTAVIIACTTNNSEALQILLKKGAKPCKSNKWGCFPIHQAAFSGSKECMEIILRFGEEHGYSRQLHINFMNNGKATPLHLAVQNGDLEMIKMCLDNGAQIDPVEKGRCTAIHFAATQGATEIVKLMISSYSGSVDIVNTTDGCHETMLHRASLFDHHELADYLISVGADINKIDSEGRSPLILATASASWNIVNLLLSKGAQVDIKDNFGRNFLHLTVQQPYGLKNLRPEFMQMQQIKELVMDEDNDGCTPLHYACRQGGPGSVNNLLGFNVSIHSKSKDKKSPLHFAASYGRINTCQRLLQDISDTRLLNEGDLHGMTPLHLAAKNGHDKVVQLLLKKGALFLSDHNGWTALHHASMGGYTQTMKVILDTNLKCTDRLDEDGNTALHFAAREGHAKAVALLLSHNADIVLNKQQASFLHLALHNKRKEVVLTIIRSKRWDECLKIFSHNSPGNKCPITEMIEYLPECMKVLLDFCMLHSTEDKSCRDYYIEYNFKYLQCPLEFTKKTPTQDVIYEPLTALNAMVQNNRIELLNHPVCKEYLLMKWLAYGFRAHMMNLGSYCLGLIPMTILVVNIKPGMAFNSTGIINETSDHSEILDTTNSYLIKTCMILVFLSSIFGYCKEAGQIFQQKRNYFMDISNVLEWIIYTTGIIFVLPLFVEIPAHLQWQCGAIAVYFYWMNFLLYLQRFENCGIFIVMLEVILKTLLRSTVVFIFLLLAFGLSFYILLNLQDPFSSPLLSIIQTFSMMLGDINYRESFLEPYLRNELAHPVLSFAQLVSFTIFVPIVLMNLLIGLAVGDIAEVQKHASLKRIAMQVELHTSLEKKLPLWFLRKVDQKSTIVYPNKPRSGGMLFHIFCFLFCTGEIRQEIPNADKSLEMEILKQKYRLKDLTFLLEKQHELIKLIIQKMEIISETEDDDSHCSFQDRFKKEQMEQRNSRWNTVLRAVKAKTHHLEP
Protocol: Agonist activity at full length human TRPA1 transfected in HEK293F cells assessed as increase in Ca2+ influx by FLIPR calcium assay relative to MO
Type: cell-based
Conditions used: filed as agonist
Readout kind: Emax (%)
Field format: number, assumed %, no unit text.

[
  {
    "Compound": "O=C/C=C/c1ccccc1",
    "Emax / %": 81
  },
  {
    "Compound": "CC(C)=CCC/C(C)=C/CC/C(C)=C/CSc1ccccc1C(=O)O [SALIRASIB]",
    "Emax / %": 106
  },
  {
    "Compound": "CC1CCC(C(C)C)C(O)C1 (stereo unspecified) [MENTHOL]",
    "Emax / %": 80
  },
  {
    "Compound": "NC(=O)c1cccc(-c2cccc(OC(=O)NC3CCCCC3)c2)c1 [URB-597]",
    "Emax / %": 85
  },
  {
    "Compound": "CCCCCC(O)/C=C/C=O (stereo unspecified) [4-HYDROXYNON-2-ENAL]",
    "Emax / %": 80
  }
]

Please look at the following compound next.
Notebook entry, UniProtKB O75762 assay: Emax of `CCCCC/C=C/C=C1/C(=O)C=C[C@@H]1C/C=C\CCCC(=O)O` = ?
75

* * *

In this section we review reported pIC50 values for a set of molecules.
Assayed system: Transient receptor potential cation channel subfamily A member 1 (Macaca mulatta)
Sequence (A0A1D5QMT1 whole entry): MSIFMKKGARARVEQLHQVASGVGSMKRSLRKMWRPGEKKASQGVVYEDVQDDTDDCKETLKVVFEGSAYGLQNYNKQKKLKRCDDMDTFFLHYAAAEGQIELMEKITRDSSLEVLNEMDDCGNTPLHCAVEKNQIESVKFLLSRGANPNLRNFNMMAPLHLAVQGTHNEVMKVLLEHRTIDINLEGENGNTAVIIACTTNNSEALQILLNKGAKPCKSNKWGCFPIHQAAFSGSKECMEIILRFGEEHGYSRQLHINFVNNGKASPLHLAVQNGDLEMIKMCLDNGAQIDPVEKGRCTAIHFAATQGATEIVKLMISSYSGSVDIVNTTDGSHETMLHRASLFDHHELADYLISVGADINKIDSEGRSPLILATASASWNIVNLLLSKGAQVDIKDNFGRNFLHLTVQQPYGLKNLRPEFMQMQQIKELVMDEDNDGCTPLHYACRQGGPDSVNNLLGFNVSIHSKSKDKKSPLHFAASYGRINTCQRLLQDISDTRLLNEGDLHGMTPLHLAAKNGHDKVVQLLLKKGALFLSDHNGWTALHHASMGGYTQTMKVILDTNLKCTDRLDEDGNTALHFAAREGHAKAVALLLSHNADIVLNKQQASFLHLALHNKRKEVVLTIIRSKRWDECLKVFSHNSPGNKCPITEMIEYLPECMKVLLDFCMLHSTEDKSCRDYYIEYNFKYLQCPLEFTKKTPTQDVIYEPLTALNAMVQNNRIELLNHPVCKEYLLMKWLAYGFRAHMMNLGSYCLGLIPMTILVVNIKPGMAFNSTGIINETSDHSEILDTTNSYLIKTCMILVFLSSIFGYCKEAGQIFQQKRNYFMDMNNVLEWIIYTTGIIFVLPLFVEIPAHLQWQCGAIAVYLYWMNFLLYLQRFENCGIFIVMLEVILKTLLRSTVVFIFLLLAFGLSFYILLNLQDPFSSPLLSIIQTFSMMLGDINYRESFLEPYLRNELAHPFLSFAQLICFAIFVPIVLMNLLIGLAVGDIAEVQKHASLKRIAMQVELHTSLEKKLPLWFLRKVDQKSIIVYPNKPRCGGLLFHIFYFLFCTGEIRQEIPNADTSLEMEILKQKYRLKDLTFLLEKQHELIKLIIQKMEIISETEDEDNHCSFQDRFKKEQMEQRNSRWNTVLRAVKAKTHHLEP
Protocol: Antagonist activity at full length rhesus monkey TRPA1 transfected in HEK293F cells assessed as blockade of MO-induced TRPA1 channel activation by measuring Ca2+ influx in presence of 120 uM MO by FLIPR calcium assay
Type: cell-based
Note: pIC50 values are expressed as the negative base-10 logarithm of concentration in M.

[
  {
    "Structure string": "CC(C)c1ccc(NC(=O)Cn2cnc3c2c(=O)n(C)c(=O)n3C)cc1",
    "Numeric value": 5.14
  },
  {
    "Structure string": "CC(=C\\c1ccc(Cl)cc1)/C(C)=N/O",
    "Numeric value": 4.25
  }
]

Please look at the following molecule next.
Bench note: what pIC50 did `CCC(=N\O)/C(C)=C/c1ccc(F)cc1` show?
6.22

* * *

Assayed system: Transient receptor potential cation channel subfamily A member 1 (Mus musculus) (UniProt Q8BLA8)
Sequence (Q8BLA8 whole entry): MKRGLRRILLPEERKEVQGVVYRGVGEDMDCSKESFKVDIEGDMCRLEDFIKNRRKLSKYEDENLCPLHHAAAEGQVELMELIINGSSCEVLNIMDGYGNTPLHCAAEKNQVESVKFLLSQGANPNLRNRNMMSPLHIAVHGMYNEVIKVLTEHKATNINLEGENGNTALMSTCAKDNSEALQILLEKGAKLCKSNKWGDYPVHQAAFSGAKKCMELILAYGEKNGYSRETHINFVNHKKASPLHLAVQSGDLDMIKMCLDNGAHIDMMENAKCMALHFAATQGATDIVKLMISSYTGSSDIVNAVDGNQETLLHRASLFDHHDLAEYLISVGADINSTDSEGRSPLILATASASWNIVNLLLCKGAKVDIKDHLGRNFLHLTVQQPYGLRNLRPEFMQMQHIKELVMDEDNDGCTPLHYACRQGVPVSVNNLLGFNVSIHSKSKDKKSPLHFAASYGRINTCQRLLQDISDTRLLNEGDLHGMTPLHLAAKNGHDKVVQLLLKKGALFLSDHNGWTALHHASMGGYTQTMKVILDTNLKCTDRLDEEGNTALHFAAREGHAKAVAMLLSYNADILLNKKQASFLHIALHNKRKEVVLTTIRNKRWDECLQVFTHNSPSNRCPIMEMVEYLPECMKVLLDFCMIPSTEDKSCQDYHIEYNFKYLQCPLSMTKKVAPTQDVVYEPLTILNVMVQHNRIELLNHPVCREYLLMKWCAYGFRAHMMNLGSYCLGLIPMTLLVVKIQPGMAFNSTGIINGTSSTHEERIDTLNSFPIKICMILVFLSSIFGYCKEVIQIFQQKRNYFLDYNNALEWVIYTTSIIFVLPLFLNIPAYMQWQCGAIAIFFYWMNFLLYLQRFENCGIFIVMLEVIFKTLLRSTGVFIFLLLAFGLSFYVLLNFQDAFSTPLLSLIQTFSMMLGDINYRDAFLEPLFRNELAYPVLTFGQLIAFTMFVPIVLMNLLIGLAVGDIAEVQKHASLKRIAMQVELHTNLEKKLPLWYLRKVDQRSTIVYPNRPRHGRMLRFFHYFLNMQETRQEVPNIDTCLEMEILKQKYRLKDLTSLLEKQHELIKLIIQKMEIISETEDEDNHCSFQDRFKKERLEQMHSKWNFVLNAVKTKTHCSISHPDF
Protocol: Agonist activity at full length mouse TRPA1 transfected in HEK293F cells assessed as increase in Ca2+ influx by FLIPR calcium assay relative to control
Type: cell-based
Conditions used: filed as agonist
Tag: rule met if measured Emax is not below 70%, rule not met if it is.

Some solved cases for reference:
[
  {
    "Compound": "Cn1c(=O)c2c(ncn2C)n(C)c1=O [CAFFEINE]",
    "Class assignment": "rule not met"
  },
  {
    "Compound": "NC(=O)c1cccc(-c2cccc(OC(=O)NC3CCCCC3)c2)c1 [URB-597]",
    "Class assignment": "rule met"
  },
  {
    "Compound": "CCCCC/C=C/C=C1/C(=O)C=C[C@@H]1C/C=C\\CCCC(=O)O",
    "Class assignment": "rule not met"
  },
  {
    "Compound": "CC1CCC(C(C)C)C(O)C1 (configuration not stated) [MENTHOL]",
    "Class assignment": "rule not met"
  }
]

Here's the next entry for you.
In plain terms: is recorded Emax at least 70% for CC(C)=CCC/C(C)=C/CC/C(C)=C/CSc1ccccc1C(=O)O [SALIRASIB] ?
rule met
